- tested-on: PIM1 (human) (UniProt P11309)
- Sequence (P11309 whole entry, looked up): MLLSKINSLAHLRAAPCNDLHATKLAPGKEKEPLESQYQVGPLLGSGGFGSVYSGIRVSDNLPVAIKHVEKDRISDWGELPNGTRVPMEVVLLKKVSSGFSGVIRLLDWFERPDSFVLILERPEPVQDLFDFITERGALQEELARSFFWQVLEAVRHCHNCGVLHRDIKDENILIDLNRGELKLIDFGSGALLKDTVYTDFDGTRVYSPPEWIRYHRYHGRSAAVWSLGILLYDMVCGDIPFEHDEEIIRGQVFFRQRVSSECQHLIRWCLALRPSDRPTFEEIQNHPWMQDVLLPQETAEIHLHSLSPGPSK
- protocol-text: radiometric filter-binding kinase assay
- measurement-parameters: compound 0.1 µM
measured-parameter: residual activity (%)
Number in %, nothing else.

Q: Sample `CN1CCN(CCOc2cc(OC3CCOCC3)c3c(Nc4c(Cl)ccc5c4OCO5)ncnc3c2)CC1` — what was its residual activity?
A: 116

Q: Sample `CCc1cncnc1N1CCN(Cc2nc3cc(C(F)(F)F)ccc3[nH]2)CC1` — what was its residual activity?
A: 88

Q: Sample `NC1(c2ccc(-c3nc4ccn5c(=O)[nH]nc5c4cc3-c3ccccc3)cc2)CCC1` — what was its residual activity?
A: 102

Q: Sample `O=C(NCCCNc1nc(Nc2cccc(CN3CCOCC3)c2)ncc1C1CC1)C1CCC1` — what was its residual activity?
A: 114

Q: Sample `Cc1ccc(Sc2cnc(Nc3cccc(Br)n3)s2)cc1C(=O)N1CCN(C(=O)CN)CC1` — what was its residual activity?
A: 54

Q: Sample `C=CC(=O)N1CCC[C@@H](n2nc(-c3ccc(Oc4ccccc4)cc3)c3c(N)ncnc32)C1` — what was its residual activity?
A: 98

* * *

Exercise: state measured residual activity for each of the compounds provided.
- tested-on: JAK2 JH1 JH2 (human)
- protocol-text: radiometric filter-binding kinase assay
- measurement-parameters: compound 0.01 µM
Number in %, nothing else.

Q: Sample COc1cc(O)c2c(c1)[C@H]1OC1C[C@H](O)[C@H](O)C(=O)/C=C\C[C@H](C)OC2=O (some centres undefined) — what was its residual activity?
A: 84

Q: Sample `O=C(Nc1nc2cc(C(F)(F)F)cc(NC3CC3)n2n1)c1cccnc1` — what was its residual activity?
A: 114

Q: Sample `COc1ccc(N(C(=O)Nc2c(C)cccc2C)c2cc(Nc3ccc(N4CCN(C)CC4)cc3)ncn2)c(OC)c1` — what was its residual activity?
A: 99

Q: Sample CNC(=O)C1[C@H]2O[C@@](C)([C@@H]1N)n1c3ccccc3c3c4c(c5c6ccccc6n2c5c31)C(=O)NC4 (some centres undefined) — what was its residual activity?
A: 10

* * *

Exercise: state measured residual activity for each of the compounds provided.
- System: PAK2 (human), Q13177 [T402E]
- Sequence (Q13177 whole entry T402E, looked up): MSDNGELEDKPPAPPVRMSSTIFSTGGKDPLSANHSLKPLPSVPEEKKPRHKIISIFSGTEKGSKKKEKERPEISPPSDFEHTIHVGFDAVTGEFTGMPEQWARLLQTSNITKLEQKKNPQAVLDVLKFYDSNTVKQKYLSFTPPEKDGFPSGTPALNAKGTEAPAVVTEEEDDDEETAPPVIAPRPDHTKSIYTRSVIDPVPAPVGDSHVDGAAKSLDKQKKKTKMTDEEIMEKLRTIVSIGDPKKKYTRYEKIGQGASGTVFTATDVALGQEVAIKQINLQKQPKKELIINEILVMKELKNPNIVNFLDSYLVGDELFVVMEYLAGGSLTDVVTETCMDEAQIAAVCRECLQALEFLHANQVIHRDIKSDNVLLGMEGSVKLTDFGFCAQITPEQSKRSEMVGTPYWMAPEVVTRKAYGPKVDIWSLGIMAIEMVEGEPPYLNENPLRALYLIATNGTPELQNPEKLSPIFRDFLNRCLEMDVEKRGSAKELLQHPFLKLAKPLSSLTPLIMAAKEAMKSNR
- protocol-text: radiometric filter-binding kinase assay
- measurement-parameters: compound 10.0 µM
Number in %, nothing else.

Q: Sample `O=C(Nc1ccccc1-c1cn2c(CN3CCNCC3)csc2n1)c1cnc2ccccc2n1` — what was its residual activity?
A: 108

Q: Sample `NCC(=O)Nc1ccc(-n2nc(C(F)(F)F)cc2-c2ccc3c(ccc4ccccc43)c2)cc1` — what was its residual activity?
A: 75

Q: Sample `Cc1nc(-c2ccc(OCC(C)C)c(C#N)c2)sc1C(=O)O` — what was its residual activity?
A: 90

Q: Sample `N#Cc1c(O)c2c(-c3ccc(-c4ccccc4O)cc3)csc2[nH]c1=O` — what was its residual activity?
A: 94

Q: Sample `NC(=O)c1c(NC(=O)C2CC2)sc2c1CCCC2` — what was its residual activity?
A: 96

* * *

- tested-on: MAPK11 (human)
- protocol-text: radiometric filter-binding kinase assay
- measurement-parameters: compound 10.0 µM
Exercise: state measured residual activity for each of the compounds provided.
Number in %, nothing else.

Q: # get_value(readout= residual activity, system= MAPK11 (human)) for `O=C(Nc1ccccc1-c1cn2c(CN3CCNCC3)csc2n1)c1cnc2ccccc2n1`
A: 90

Q: # get_value(readout= residual activity, system= MAPK11 (human)) for `O=C(N[C@@H](COc1ccc2[nH]c(=O)[nH]c2c1)c1ccccc1)c1cccn(Cc2ccc(F)c(F)c2)c1=O`
A: 115

Q: # get_value(readout= residual activity, system= MAPK11 (human)) for `O=C1NC(=S)N[C@@H]1Cc1c[nH]c2ccccc12`
A: 95

Q: # get_value(readout= residual activity, system= MAPK11 (human)) for `Cc1cccc(Nc2nn(C)c3ncnc(N)c23)c1`
A: 111

Q: # get_value(readout= residual activity, system= MAPK11 (human)) for `Cc1ccc(Sc2cnc(Nc3cccc(Br)n3)s2)cc1C(=O)N1CCN(C(=O)CN)CC1`
A: 48

Q: # get_value(readout= residual activity, system= MAPK11 (human)) for `Cc1ccc2c(c1)C(=O)[C@@]1(O)CCN(c3ccccc3)C1=N2`
A: 82

Q: # get_value(readout= residual activity, system= MAPK11 (human)) for `NC(=O)c1c(NC(=O)C2CC2)sc2c1CCCC2`
A: 98

Q: # get_value(readout= residual activity, system= MAPK11 (human)) for COc1ccc2c(c1)c1c3c(c4c5ccccc5n(C)c4c1n2CC(O)CN(C)C)C(=O)NC3=O (stereo not given)
A: 95

Q: # get_value(readout= residual activity, system= MAPK11 (human)) for `Cn1nc(Nc2ccc(F)cc2)c2c(N)ncnc21`
A: 127

Q: # get_value(readout= residual activity, system= MAPK11 (human)) for `FC(F)(F)c1ccc(-c2ccc(Oc3cncc4sc(-c5nn[nH]n5)cc34)cc2)cc1`
A: 100

Q: # get_value(readout= residual activity, system= MAPK11 (human)) for `Cc1ccc(-c2ccc3c(ccc4sc5c(c43)NC[C@@H](C)NC5=O)n2)cn1`
A: 117

Q: # get_value(readout= residual activity, system= MAPK11 (human)) for `CCOC(=O)c1ccc(N2NC(=O)/C(=C/c3ccc([N+](=O)[O-])o3)C2=O)cc1`
A: 113

Q: # get_value(readout= residual activity, system= MAPK11 (human)) for `C[C@H]1CCCC(=O)CCC/C=C/c2cc(O)cc(O)c2C(=O)O1`
A: 101

Q: # get_value(readout= residual activity, system= MAPK11 (human)) for `NS(=O)(=O)OC[C@@H]1C[C@@H](n2ccc3c(N[C@H]4CCc5ccccc54)ncnc32)C[C@@H]1O`
A: 98

Q: # get_value(readout= residual activity, system= MAPK11 (human)) for `NC(=O)c1ccc(-c2ccc(Oc3cncc4sc(-c5nn[nH]n5)cc34)cc2)cc1`
A: 104

Q: # get_value(readout= residual activity, system= MAPK11 (human)) for CC1=C(CO)C(=O)O[C@@H]([C@@H](C)[C@H]2CC[C@H]3[C@@H]4C[C@H]5O[C@]56[C@@H](O)C=CC(=O)[C@]6(C)C4CC[C@]23C)C1 (stereo not given in full)
A: 128

Q: # get_value(readout= residual activity, system= MAPK11 (human)) for `N#Cc1c(O)c2c(-c3ccc(-c4ccccc4O)cc3)csc2[nH]c1=O`
A: 89

Q: # get_value(readout= residual activity, system= MAPK11 (human)) for `CCNc1nc(Nc2cc(F)c(C(=O)N3CCOCC3)cc2OC)ncc1C(F)(F)F`
A: 91

Q: # get_value(readout= residual activity, system= MAPK11 (human)) for Nc1cccc2c1CN(C1CCC(=O)NC1=O)C2=O (stereo not given)
A: 106

Q: # get_value(readout= residual activity, system= MAPK11 (human)) for `O=c1c(O)c(-c2ccc(O)c(O)c2)oc2cc(O)c(O)c(O)c12`
A: 90

* * *

- tested-on: DYRK1A (human) (UniProt Q13627)
- protocol-text: radiometric filter-binding kinase assay
- measurement-parameters: compound 100.0 µM
measured-parameter: residual activity (%)
Number in %, nothing else.

Q: Sample `Cc1cc(N=Nc2cc(S(=O)(=O)O)c(C)cc2C)c(N)cc1O` — what was its residual activity?
A: 113

Q: Sample `COC(=O)/C=C/C(=O)OC` — what was its residual activity?
A: 109

Q: Sample `Cc1ccc2c(c1)C(=O)[C@@]1(O)CCN(c3ccccc3)C1=N2` — what was its residual activity?
A: 90

Q: Sample `N#Cc1c(O)c2c(-c3ccc(-c4ccccc4O)cc3)csc2[nH]c1=O` — what was its residual activity?
A: 26

* * *

Exercise: state measured residual activity for each of the compounds provided.
- Tested on: SGK1 (human), O00141 [S422D]
- Sequence (O00141 whole entry S422D, looked up): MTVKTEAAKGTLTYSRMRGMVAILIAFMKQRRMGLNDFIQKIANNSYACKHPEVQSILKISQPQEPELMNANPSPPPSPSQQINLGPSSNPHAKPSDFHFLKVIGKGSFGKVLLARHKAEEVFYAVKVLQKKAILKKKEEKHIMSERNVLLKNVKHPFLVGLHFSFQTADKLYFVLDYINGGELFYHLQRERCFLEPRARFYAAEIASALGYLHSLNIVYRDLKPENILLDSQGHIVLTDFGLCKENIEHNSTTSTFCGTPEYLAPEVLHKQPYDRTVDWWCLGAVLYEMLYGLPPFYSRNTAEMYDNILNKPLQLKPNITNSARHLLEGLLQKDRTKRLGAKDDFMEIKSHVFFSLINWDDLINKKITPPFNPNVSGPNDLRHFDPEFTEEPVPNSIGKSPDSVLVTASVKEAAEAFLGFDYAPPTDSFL
- protocol-text: radiometric filter-binding kinase assay
- measurement-parameters: compound 1.0 µM

Q: # get_value(readout= residual activity, system= SGK1 (human), O00141 [S422D]) for `C=CC(=O)N1CCC[C@@H](n2nc(-c3ccc(Oc4ccccc4)cc3)c3c(N)ncnc32)C1`
A: 107%

Q: # get_value(readout= residual activity, system= SGK1 (human), O00141 [S422D]) for `CCc1cncnc1N1CCN(Cc2nc3cc(C(F)(F)F)ccc3[nH]2)CC1`
A: 74%

Q: # get_value(readout= residual activity, system= SGK1 (human), O00141 [S422D]) for `Cc1cccc(Nc2nn(C)c3ncnc(N)c23)c1`
A: 104%

Q: # get_value(readout= residual activity, system= SGK1 (human), O00141 [S422D]) for `Cn1nc(Nc2ccc(F)cc2)c2c(N)ncnc21`
A: 97%

Q: # get_value(readout= residual activity, system= SGK1 (human), O00141 [S422D]) for `O=C(O)c1ccc(-c2c[nH]c3ncc(-c4ccccc4)cc23)cc1C1CCCC1`
A: 9%

Q: # get_value(readout= residual activity, system= SGK1 (human), O00141 [S422D]) for COc1cc(O)c2c(c1)[C@H]1OC1C[C@H](O)[C@H](O)C(=O)/C=C\C[C@H](C)OC2=O (stereo not given in full)
A: 104%

Q: # get_value(readout= residual activity, system= SGK1 (human), O00141 [S422D]) for `CN(C)C/C=C/C(=O)Nc1cccc(C(=O)Nc2ccc(Nc3nccc(-c4cccnc4)n3)cc2)c1`
A: 105%

Q: # get_value(readout= residual activity, system= SGK1 (human), O00141 [S422D]) for `NS(=O)(=O)OC[C@@H]1C[C@@H](n2ccc3c(N[C@H]4CCc5ccccc54)ncnc32)C[C@@H]1O`
A: 95%

Q: # get_value(readout= residual activity, system= SGK1 (human), O00141 [S422D]) for `CCCC(CCC)C(=O)O`
A: 89%

Q: # get_value(readout= residual activity, system= SGK1 (human), O00141 [S422D]) for `CNc1nc(-c2ccc3c(N)n[nH]c3c2)cc(N2C[C@@H](C(=O)NC3CCCCC3)CC[C@H]2C)n1`
A: 81%
